Test system: Enterococcus sp.
Assay: In vitro antibacterial evaluation: minimum inhibitory concentration (MIC), broth dilution method
Format: cell-based
Settings: Enterococcus faecium (GC 4557); broth dilution, 18 hours at 35° C.
Quantity Name: MIC Enterococcus faecium (GC 4557) (µg/mL)

molecule="CC(c1ccccc1)C1NC(=O)CNC(=O)C(CO)NC(=O)C(C(O)C2CNC(=N)N2C2OC(CO)C(O)C(O)C2O)NC(=O)C(C(O)C2CNC(=N)N2)NC(=O)C(Cc2ccc(O)c(NC(=S)Nc3cc(C(F)(F)F)cc(C(F)(F)F)c3)c2)NC1=O (stereo not shown)" recorded_result=32
molecule="CC(=O)Nc1cc(CC2NC(=O)C(C(C)c3ccccc3)NC(=O)CNC(=O)C(CO)NC(=O)C(C(O)C3CNC(=N)N3C3OC(CO)C(O)C(O)C3O)NC(=O)C(C(O)C3CNC(=N)N3)NC2=O)ccc1O (stereo not shown)" recorded_result=64
molecule="COc1ccc(Oc2cccc(-c3nc4cc(CC5NC(=O)C(C(C)c6ccccc6)NC(=O)CNC(=O)C(CO)NC(=O)C(C(O)C6CNC(=N)N6C6OC(CO)C(O)C(O)C6O)NC(=O)C(C(O)C6CNC(=N)N6)NC5=O)ccc4o3)c2)cc1 (stereo not shown)" recorded_result=4
molecule="CC(c1ccccc1)C1NC(=O)CNC(=O)C(CO)NC(=O)C(C(O)C2CNC(=N)N2C2OC(CO)C(O)C(O)C2O)NC(=O)C(C(O)C2CNC(=N)N2)NC(=O)C(Cc2ccc3oc(SCC(=O)c4ccc(Cl)cc4)nc3c2)NC1=O (stereo not shown)" recorded_result=2
molecule="CC(c1ccccc1)C1NC(=O)CNC(=O)C(CO)NC(=O)C(C(O)C2CNC(=N)N2C2OC(CO)C(O)C(O)C2O)NC(=O)C(C(O)C2CNC(=N)N2)NC(=O)C(Cc2ccc3oc(SCc4ccccc4)nc3c2)NC1=O (stereo not shown)" recorded_result=4
molecule="Cc1ccc(Oc2cccc(-c3nc4cc(CC5NC(=O)C(C(C)c6ccccc6)NC(=O)CNC(=O)C(CO)NC(=O)C(C(O)C6CNC(=N)N6C6OC(CO)C(O)C(O)C6O)NC(=O)C(C(O)C6CNC(=N)N6)NC5=O)ccc4o3)c2)cc1 (stereo not shown)" recorded_result=4

---

Tested on: Staphylococcus sp.
Assay: In vitro antibacterial evaluation: minimum inhibitory concentration (MIC), broth dilution method
Format: cell-based
Conditions: strain GC 4544; broth dilution, 18 hours at 35° C.
Quantity Name: MIC Staphylococcus aureus (GC 4544) (µg/mL)

compound="CC(c1ccccc1)C1NC(=O)CNC(=O)C(CO)NC(=O)C(C(O)C2CNC(=N)N2C2OC(CO)C(O)C(O)C2O)NC(=O)C(C(O)C2CNC(=N)N2)NC(=O)C(Cc2ccc(OC3OC(CO)C(OC4OC5COC(C6CCCC6)OC5C(O)C4O)C(O)C3O)cc2)NC1=O (stereo not shown)" recorded_result=2
compound="COc1cccc(C2OC3C(OC4C(CO)OC(Oc5ccc(CC6NC(=O)C(C(C)c7ccccc7)NC(=O)CNC(=O)C(CO)NC(=O)C(C(O)C7CNC(=N)N7C7OC(CO)C(O)C(O)C7O)NC(=O)C(C(O)C7CNC(=N)N7)NC6=O)cc5)C(O)C4O)OC(CO)C(O)C3O2)c1 (single isomer, unassigned) [Example 137b]" recorded_result=16
compound="CC(c1ccccc1)C1NC(=O)CNC(=O)C(CO)NC(=O)C(C(O)C2CNC(=N)N2C2OC(CO)C(O)C(O)C2O)NC(=O)C(C(O)C2CNC(=N)N2)NC(=O)C(Cc2ccc(OC3OC(CO)C(OC4OC5COC(c6cccc(O)c6)OC5C(O)C4O)C(O)C3O)cc2)NC1=O (stereo not shown)" recorded_result=16
compound="COc1cc(OC)cc(C2OC3C(OC4C(CO)OC(Oc5ccc(CC6NC(=O)C(C(C)c7ccccc7)NC(=O)CNC(=O)C(CO)NC(=O)C(C(O)C7CNC(=N)N7C7OC(CO)C(O)C(O)C7O)NC(=O)C(C(O)C7CNC(=N)N7)NC6=O)cc5)C(O)C4O)OC(CO)C(O)C3O2)c1 (stereo not shown) [Example 150a]" recorded_result=32
compound="Cc1cc(C2OCC3OC(OC4C(CO)OC(Oc5ccc(CC6NC(=O)C(C(C)c7ccccc7)NC(=O)CNC(=O)C(CO)NC(=O)C(C(O)C7CNC(=N)N7C7OC(CO)C(O)C(O)C7O)NC(=O)C(C(O)C7CNC(=N)N7)NC6=O)cc5)C(O)C4O)C(O)C(O)C3O2)ccc1[N+](=O)[O-] (stereo not shown)" recorded_result=8
compound="CC(c1ccccc1)C1NC(=O)CNC(=O)C(CO)NC(=O)C(C(O)C2CNC(=N)N2C2OC(CO)C(O)C(O)C2O)NC(=O)C(C(O)C2CNC(=N)N2)NC(=O)C(Cc2ccc(OC3OC(CO)C(OC4OC5COC(CC6CCCCC6)OC5C(O)C4O)C(O)C3O)cc2)NC1=O (stereo not shown)" recorded_result=1
compound="CC(c1ccccc1)C1NC(=O)CNC(=O)C(CO)NC(=O)C(C(O)C2CNC(=N)N2C2OC(CO)C(O)C(O)C2O)NC(=O)C(C(O)C2CNC(=N)N2)NC(=O)C(Cc2ccc(OC3OC(CO)C(OC4OC5COC(c6ccc(C=Cc7ccccc7)cc6)OC5C(O)C4O)C(O)C3O)cc2)NC1=O (stereo not shown)" recorded_result=8

---

Test system: Staphylococcus sp.
Experiment: In vitro antibacterial evaluation: minimum inhibitory concentration (MIC), broth dilution method
Type: cell-based
Conditions: strain GC 4542; broth dilution, 18 hours at 35° C.
Quantity Name: MIC Staphylococcus aureus (GC 4542)

compound="Cc1cccc(C2OCC3OC(OC4C(CO)OC(Oc5ccc(CC6NC(=O)C(C(C)c7ccccc7)NC(=O)CNC(=O)C(CO)NC(=O)C(C(O)C7CNC(=N)N7C7OC(CO)C(O)C(O)C7O)NC(=O)C(C(O)C7CNC(=N)N7)NC6=O)cc5)C(O)C4O)C(O)C(O)C3O2)c1 (stereo not shown)" study_target="Staphylococcus sp." recorded_result="1 mg/L"
compound="COc1cc(C2OCC3OC(OC4C(CO)OC(Oc5ccc(CC6NC(=O)C(C(C)c7ccccc7)NC(=O)CNC(=O)C(CO)NC(=O)C(C(O)C7CNC(=N)N7C7OC(CO)C(O)C(O)C7O)NC(=O)C(C(O)C7CNC(=N)N7)NC6=O)cc5)C(O)C4O)C(O)C(O)C3O2)cc([N+](=O)[O-])c1O (stereo not shown)" study_target="Staphylococcus sp." recorded_result="32 mg/L"
compound="CCOc1cc(C2OCC3OC(OC4C(CO)OC(Oc5ccc(CC6NC(=O)C(C(C)c7ccccc7)NC(=O)CNC(=O)C(CO)NC(=O)C(C(O)C7CNC(=N)N7C7OC(CO)C(O)C(O)C7O)NC(=O)C(C(O)C7CNC(=N)N7)NC6=O)cc5)C(O)C4O)C(O)C(O)C3O2)ccc1[N+](=O)[O-] (stereo not shown)" study_target="Staphylococcus sp." recorded_result="16 mg/L"
compound="CC(c1ccccc1)C1NC(=O)CNC(=O)C(CO)NC(=O)C(C(O)C2CNC(=N)N2C2OC(CO)C(O)C(O)C2O)NC(=O)C(C(O)C2CNC(=N)N2)NC(=O)C(Cc2ccc(OC3OC(CO)C(OC4OC5COC(c6ccc7c(c6)OCCO7)OC5C(O)C4O)C(O)C3O)cc2)NC1=O (stereo not shown)" study_target="Staphylococcus sp." recorded_result="2 mg/L"
compound="CC(c1ccccc1)C1NC(=O)CNC(=O)C(CO)NC(=O)C(C(O)C2CN(Cc3ccc(-c4ccccc4)cc3)C(=N)N2C2OC(CO)C(O)C(O)C2O)NC(=O)C(C(O)C2CNC(=NCc3ccc(-c4ccccc4)cc3)N2Cc2ccc(-c3ccccc3)cc2)NC(=O)C(Cc2ccc(OC3OC(CO)C(OC4OC(CO)C(O)C(O)C4O)C(O)C3O)cc2)NC1=O (stereo not shown)" study_target="Staphylococcus sp." recorded_result="8 mg/L"
compound="COc1cccc(C2OCC3OC(OC4C(CO)OC(Oc5ccc(CC6NC(=O)C(C(C)c7ccccc7)NC(=O)CNC(=O)C(CO)NC(=O)C(C(O)C7CNC(=N)N7C7OC(CO)C(O)C(O)C7O)NC(=O)C(C(O)C7CNC(=N)N7)NC6=O)cc5)C(O)C4O)C(O)C(O)C3O2)c1 (stereo not shown)" study_target="Staphylococcus sp." recorded_result="1 to 2 mg/L"
compound="CCCCCCCC1OCC2OC(OC3C(CO)OC(Oc4ccc(CC5NC(=O)C(C(C)c6ccccc6)NC(=O)CNC(=O)C(CO)NC(=O)C(C(O)C6CNC(=N)N6C6OC(CO)C(O)C(O)C6O)NC(=O)C(C(O)C6CNC(=N)N6)NC5=O)cc4)C(O)C3O)C(O)C(O)C2O1 (stereo not shown)" study_target="Staphylococcus sp." recorded_result="1 mg/L"

---

Test system: Enterococcus sp.
Experiment: In vitro antibacterial evaluation: minimum inhibitory concentration (MIC), broth dilution method
Format: cell-based
Details: Enterococcus faecalis (GC 2242); broth dilution, 18 hours at 35° C.
Numbered stars: 1 amine (or outer) side, 2 acyl side, 3 side chain; on linkers, the order of the positions; unused ones are H or OH. Square brackets hold non-standard residues; d marks the D form. Peptide text beside a SMILES is read from it. ξ: configuration not given here. X1 = N=C1NCC(C(O)C(N[*:1])C(=O)[*:2])N1C1OC(CO)C(O)C(O)C1O; ξEnduracididine(βξ-OH,4'ξ) = N=C1NCC(C(O)C(N)C(=O)O)N1; ξCha(3ξ-Me) = CC(C1CCCCC1)C(N)C(=O)O; Cha = N[CH](CC1CCCCC1)C(=O)O
Quantity Name: MIC Enterococcus faecalis (GC 2242) (µg/mL)

compound="CC(c1ccccc1)C1NC(=O)CNC(=O)C(CO)NC(=O)C(C(O)C2CN(c3nc4ccccc4s3)C(=N)N2C2OC(CO)C(O)C(O)C2O)NC(=O)C(C(O)C2CNC(=Nc3nc4ccccc4s3)N2)NC(=O)C(Cc2ccc(OC3OC(CO)C(OC4OC(CO)C(O)C(O)C4O)C(O)C3O)cc2)NC1=O (stereo not drawn)" study_target="Enterococcus sp." operator=> recorded_result=64
compound="CC(C1CCCCC1)C1NC(=O)CNC(=O)C(CO)NC(=O)C(C(O)C2CNC(=N)N2C2OC(CO)C(O)C(O)C2O)NC(=O)C(C(O)C2CNC(=N)N2)NC(=O)C(CC2CCCCC2)NC1=O (stereo not drawn) [Example 53] (cyclo(G[ξCha(3ξ-Me)][Cha][ξEnduracididine(βξ-OH,4'ξ)][X1]S); configuration not given here)" study_target="Enterococcus sp." operator== recorded_result=8
compound="CC(c1ccccc1)C1NC(=O)CNC(=O)C(CO)NC(=O)C(C(O)C2CN(Cc3ccccc3)C(=NCc3ccccc3)N2C2OC(CO)C(O)C(O)C2O)NC(=O)C(C(O)C2CN(Cc3ccccc3)C(=NCc3ccccc3)N2Cc2ccccc2)NC(=O)C(Cc2ccc(OC3OC(CO)C(OC4OC5COC6(OC5C(O)C4O)C4CC5CC(C4)CC6C5)C(O)C3O)cc2)NC1=O (stereo not drawn)" study_target="Enterococcus sp." operator== recorded_result=16
compound="COc1cc(-c2nc3cc(CC4NC(=O)C(C(C)c5ccccc5)NC(=O)CNC(=O)C(CO)NC(=O)C(C(O)C5CNC(=N)N5C5OC(CO)C(O)C(O)C5O)NC(=O)C(C(O)C5CNC(=N)N5)NC4=O)ccc3o2)cc(OC)c1OC (stereo not drawn)" study_target="Enterococcus sp." operator== recorded_result=32
compound="CC(c1ccccc1)C1NC(=O)CNC(=O)C(CO)NC(=O)C(C(O)C2CN(Cc3ccc4ccccc4c3)C(=N)N2C2OC(CO)C(O)C(O)C2O)NC(=O)C(C(O)C2CNC(=N)N2)NC(=O)C(Cc2ccc(OC3OC(CO)C(OC4OC5COC6(OC5C(O)C4O)C4CC5CC(C4)CC6C5)C(O)C3O)cc2)NC1=O (stereo not drawn)" study_target="Enterococcus sp." operator== recorded_result=16
compound="CC(=O)Nc1cc(CC2NC(=O)C(C(C)c3ccccc3)NC(=O)CNC(=O)C(CO)NC(=O)C(C(O)C3CNC(=N)N3C3OC(CO)C(O)C(O)C3O)NC(=O)C(C(O)C3CNC(=N)N3)NC2=O)ccc1O (stereo not drawn)" study_target="Enterococcus sp." operator== recorded_result=64
compound="CC(C)=CCCC(C)=CCN=C1NCC(C(O)C2NC(=O)C(C(O)C3CNC(=N)N3)NC(=O)C(Cc3ccc(OC4OC(CO)C(OC5OC6COC7(OC6C(O)C5O)C5CC6CC(C5)CC7C6)C(O)C4O)cc3)NC(=O)C(C(C)c3ccccc3)NC(=O)CNC(=O)C(CO)NC2=O)N1C1OC(CO)C(O)C(O)C1O (stereo not drawn)" study_target="Enterococcus sp." operator== recorded_result=16
compound="CC(c1ccccc1)C1NC(=O)CNC(=O)C(CO)NC(=O)C(C(O)C2CNC(=N)N2C2OC(CO)C(O)C(O)C2O)NC(=O)C(C(O)C2CNC(=N)N2)NC(=O)C(Cc2ccc3oc(-c4ccc(Br)cc4)nc3c2)NC1=O (stereo not drawn)" study_target="Enterococcus sp." operator== recorded_result=32
compound="CC(c1ccccc1)C1NC(=O)CNC(=O)C(CO)NC(=O)C(C(O)C2CNC(=N)N2C2OC(CO)C(O)C(O)C2O)NC(=O)C(C(O)C2CNC(=N)N2)NC(=O)C(Cc2ccc3oc(SCc4ccc(-c5ccccc5)cc4)nc3c2)NC1=O (stereo not drawn)" study_target="Enterococcus sp." operator== recorded_result=4
